test method notes: Stability in Sprague-Dawley rat plasma assessed as parent compound remaining at 150 uM measured after 24 hrs at 37 degreeC by HPLC analysis
Type: ADME, cell-free
details: read-out: Stability
Known remaining at 24 h, 150 µM of a selection of molecules

[[record]]
structure_string = "O=C(O)C(F)(F)F.O=S(=O)(c1ccc(OCCCn2ccnc2)cc1)N1c2ccccc2Oc2ccccc21"
attribute_measured = "remaining at 24 h, 150 µM"
result = "> 90%"

[[record]]
structure_string = "O=C(O)C(F)(F)F.O=S(=O)(c1ccc(OCCCN2CCCC2)cc1)N1c2ccccc2Oc2ccccc21"
attribute_measured = "remaining at 24 h, 150 µM"
result = "> 90%"

[[record]]
structure_string = "CNCCCOc1ccc(S(=O)(=O)N2c3ccccc3Oc3ccccc32)cc1.O=C(O)C(F)(F)F"
attribute_measured = "remaining at 24 h, 150 µM"
result = "73%"

[[record]]
structure_string = "O=C(O)C(F)(F)F.O=S(=O)(c1ccc(OCCCN2CCOCC2)cc1)N1c2ccccc2Oc2ccccc21"
attribute_measured = "remaining at 24 h, 150 µM"
result = "> 90%"

[[record]]
structure_string = "O=C(O)C(F)(F)F.O=S(=O)(c1ccc(OCCCN2CCCCC2)cc1)N1c2ccccc2Oc2ccccc21"
attribute_measured = "remaining at 24 h, 150 µM"
result = "> 90%"


Switching to the query record.
Inquiry: State the recorded remaining at 24 h, 150 µM for this entry: CN(C)CCCOc1ccc(S(=O)(=O)N2c3ccccc3Oc3ccccc32)cc1.O=C(O)C(F)(F)F
Reply text: > 90%

====

assayed target: Voltage-dependent N-type calcium channel subunit alpha-1B (Homo sapiens, UniProt Q00975)
Sequence (Q00975 whole entry): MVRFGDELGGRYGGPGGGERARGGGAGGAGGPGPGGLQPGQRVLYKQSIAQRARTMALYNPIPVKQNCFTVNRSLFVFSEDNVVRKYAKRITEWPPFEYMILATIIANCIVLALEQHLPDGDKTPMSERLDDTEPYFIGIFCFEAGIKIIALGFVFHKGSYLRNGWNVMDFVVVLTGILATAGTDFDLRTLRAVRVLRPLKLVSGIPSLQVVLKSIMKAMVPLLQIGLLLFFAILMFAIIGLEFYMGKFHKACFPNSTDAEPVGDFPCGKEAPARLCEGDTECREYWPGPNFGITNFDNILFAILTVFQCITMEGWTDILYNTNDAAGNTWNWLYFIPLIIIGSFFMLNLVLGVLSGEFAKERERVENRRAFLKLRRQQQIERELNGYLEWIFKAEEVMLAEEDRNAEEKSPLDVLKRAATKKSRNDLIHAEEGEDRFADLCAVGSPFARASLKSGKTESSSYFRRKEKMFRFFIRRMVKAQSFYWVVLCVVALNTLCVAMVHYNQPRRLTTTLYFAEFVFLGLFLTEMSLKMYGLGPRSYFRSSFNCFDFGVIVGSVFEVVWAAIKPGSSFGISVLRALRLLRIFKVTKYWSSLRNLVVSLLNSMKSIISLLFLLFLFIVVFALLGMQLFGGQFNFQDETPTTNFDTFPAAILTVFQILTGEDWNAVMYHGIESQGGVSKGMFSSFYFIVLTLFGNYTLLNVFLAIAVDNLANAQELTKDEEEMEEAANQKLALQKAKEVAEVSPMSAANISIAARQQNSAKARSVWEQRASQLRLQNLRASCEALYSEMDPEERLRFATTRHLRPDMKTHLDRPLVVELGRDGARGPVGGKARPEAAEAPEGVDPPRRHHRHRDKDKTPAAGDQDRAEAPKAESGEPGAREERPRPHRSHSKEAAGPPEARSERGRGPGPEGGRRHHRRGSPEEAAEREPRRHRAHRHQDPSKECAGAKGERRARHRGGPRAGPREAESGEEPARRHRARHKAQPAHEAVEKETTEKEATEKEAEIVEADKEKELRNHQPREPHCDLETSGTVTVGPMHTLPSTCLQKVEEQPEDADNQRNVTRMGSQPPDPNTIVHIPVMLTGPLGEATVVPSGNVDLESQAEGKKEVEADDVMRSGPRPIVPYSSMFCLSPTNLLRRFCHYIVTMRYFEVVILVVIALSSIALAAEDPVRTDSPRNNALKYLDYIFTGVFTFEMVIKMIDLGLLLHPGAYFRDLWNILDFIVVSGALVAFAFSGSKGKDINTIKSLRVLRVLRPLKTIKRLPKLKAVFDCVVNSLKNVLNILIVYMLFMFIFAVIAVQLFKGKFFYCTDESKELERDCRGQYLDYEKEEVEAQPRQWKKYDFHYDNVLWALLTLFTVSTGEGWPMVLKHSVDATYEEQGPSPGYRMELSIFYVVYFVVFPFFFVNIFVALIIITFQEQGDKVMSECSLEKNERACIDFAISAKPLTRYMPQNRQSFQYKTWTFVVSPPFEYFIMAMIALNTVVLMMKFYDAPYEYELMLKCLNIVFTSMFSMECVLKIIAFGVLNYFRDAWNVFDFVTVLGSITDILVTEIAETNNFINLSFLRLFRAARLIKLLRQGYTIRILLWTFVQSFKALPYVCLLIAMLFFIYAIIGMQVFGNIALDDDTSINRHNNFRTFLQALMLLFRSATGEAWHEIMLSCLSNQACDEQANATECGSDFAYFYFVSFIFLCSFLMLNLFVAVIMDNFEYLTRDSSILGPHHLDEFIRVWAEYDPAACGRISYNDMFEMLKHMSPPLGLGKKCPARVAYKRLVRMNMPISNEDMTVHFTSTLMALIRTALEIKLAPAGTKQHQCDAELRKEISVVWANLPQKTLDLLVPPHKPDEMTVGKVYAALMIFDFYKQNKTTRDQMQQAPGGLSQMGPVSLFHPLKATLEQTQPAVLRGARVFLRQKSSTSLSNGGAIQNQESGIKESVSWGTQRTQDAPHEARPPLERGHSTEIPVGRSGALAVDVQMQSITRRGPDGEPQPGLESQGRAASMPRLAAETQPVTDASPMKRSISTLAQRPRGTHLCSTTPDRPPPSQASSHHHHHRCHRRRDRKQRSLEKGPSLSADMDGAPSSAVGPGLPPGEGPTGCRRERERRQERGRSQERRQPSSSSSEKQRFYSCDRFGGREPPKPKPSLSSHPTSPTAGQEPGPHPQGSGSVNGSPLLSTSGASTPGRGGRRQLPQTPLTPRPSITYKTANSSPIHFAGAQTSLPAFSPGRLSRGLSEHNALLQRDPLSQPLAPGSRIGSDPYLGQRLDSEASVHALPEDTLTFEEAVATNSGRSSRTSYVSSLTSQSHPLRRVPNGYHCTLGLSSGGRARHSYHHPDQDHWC
test method notes: Inhibition of Cav2.2 in human SH-SY5Y cells assessed as inhibition of calcium influx preincubated 300 secs followed by addition of KCL/CaCl2 and measured for 300 secs in presence of Cav1 blocker nifedipine by calcium 6 dye based calcium influx assay
attribute measured: pIC50
Conceptually, pIC50 converts a concentration in mol/L into minus its log10.

[[record]]
structure_string = "O=S(=O)(c1ccc(NCCCn2ccnc2)cc1)N1c2ccccc2Oc2ccccc21"
attribute_measured = "pIC50"
readout_number = 4.86

[[record]]
structure_string = "O=S(=O)(c1ccc(NCCCN2CCCCC2)cc1)N1c2ccccc2Oc2ccccc21"
attribute_measured = "pIC50"
readout_number = 4.82

[[record]]
structure_string = "CNCCCNc1ccc(S(=O)(=O)N2c3ccccc3Oc3ccccc32)cc1"
attribute_measured = "pIC50"
readout_number = 4.96

[[record]]
structure_string = "O=C(O)C(F)(F)F.O=S(=O)(c1ccc(OCCCN2CCCCC2)cc1)N1c2ccccc2Oc2ccccc21"
attribute_measured = "pIC50"
readout_number = 5.12

[[record]]
structure_string = "CN(C)CCCOc1ccc(S(=O)(=O)N2c3ccccc3Oc3ccccc32)cc1.O=C(O)C(F)(F)F"
attribute_measured = "pIC50"
readout_number = 5.37


Inquiry: Query: pIC50; subject: O=S(=O)(c1ccc(NC2CCNCC2)cc1)N1c2ccccc2Oc2ccccc21
Reply text: 4.70

Inquiry: Query: pIC50; subject: CN(C)CCCN(C)c1ccc(S(=O)(=O)N2c3ccccc3Oc3ccccc32)cc1
Reply text: 4.73

Inquiry: GET /values?readout=pIC50&item= COCCCOc1ccc(S(=O)(=O)N2c3ccccc3Oc3ccccc32)cc1
Reply text: 3.76

Inquiry: Returns the measured pIC50 for the input compound. Input: O=S(=O)(c1ccc(NCCCN2CCCC2)cc1)N1c2ccccc2Oc2ccccc21
Reply text: 5.36

Inquiry: Would you mind telling me what pIC50 value was observed for CN(C)CCCNc1ccc(S(=O)(=O)N2c3ccccc3Oc3ccccc32)cc1 ?
Reply text: 5.04

Inquiry: Fill in the blank: the reported pIC50 of O=S(=O)(c1ccc(NCCCN2CCOCC2)cc1)N1c2ccccc2Oc2ccccc21 is ____.
Reply text: 4.68

Inquiry: Quick one: pIC50 of O=C(O)C(F)(F)F.O=S(=O)(c1ccc(OCCCN2CCOCC2)cc1)N1c2ccccc2Oc2ccccc21 ?
Reply text: 4.54

Inquiry: // pIC50 lookup, key: CNCCCOc1ccc(S(=O)(=O)N2c3ccccc3Oc3ccccc32)cc1.O=C(O)C(F)(F)F
Reply text: 5.34

Inquiry: Query: pIC50; subject: O=C(O)C(F)(F)F.O=S(=O)(c1ccc(OCCCn2ccnc2)cc1)N1c2ccccc2Oc2ccccc21
Reply text: 4.31

Inquiry: Reported pIC50 for O=C(O)C(F)(F)F.O=S(=O)(c1ccc(OCCCN2CCCC2)cc1)N1c2ccccc2Oc2ccccc21 : what is it?
Reply text: 5.10
